# Test system: Avena fatua (AVEFA)
# procedure text: Example A glasshouse herbicide test, post-emergence, AVEFA
# Type: in vivo
# experimental parameters: Avena fatua, post-emergence, 312 h, Rate 250 g/ha, sprayed after 8 days cultivation, evaluated after 13 days, read-out: Post-Emergence Activity AVEFA (100=total damage to plant; 0=no damage to plant)
metric: pest or weed control at 250 g/ha (%)

> print(dat)
                                   compound  recorded.measurement
1  Cc1cc(C)c(C2C(=O)CC(Cc3ccccc3)C2=O)c(C)c1 (stereo not drawn)                    40
2  COC1CCC(CC2CC(=O)C(c3c(C)cc(C)cc3C)C2=O)CC1 (stereo not drawn)                   100
3  Cc1cc(C)c(C2C(=O)CC(CC3CCC(C)CC3)C2=O)c(C)c1 (stereo not drawn)                    70
4  COc1ccc(CC2CC(=O)C(c3c(C)cc(C)cc3C)C2=O)cc1 (stereo not drawn)                    90
5  Cc1cc(C)c(C2=C(OC(=O)C(C)(C)C)CC(Cc3ccc(S(C)(=O)=O)cc3)C2=O)c(C)c1 (stereo not drawn)                    80
6  Cc1cc(C)c(C2=C(OC(=O)C(C)(C)C)CC(CC3CCCCC3)C2=O)c(C)c1 (stereo not drawn)                    80
7  Cc1cc(C)c(C2C(=O)CC(CC3CCCC3)C2=O)c(C)c1 (stereo not drawn)                    80
8  Cc1cc(C)c(C2=C(OC(=O)C(C)(C)C)CC(Cc3ccccc3)C2=O)c(C)c1 (stereo not drawn)                    30
9  Cc1cc(C)c(C2C(=O)CC(CC3CC(C)CCC3C)C2=O)c(C)c1 (stereo not drawn)                    60
